Provenance of the data: ChEMBL document CHEMBL1145846

target: UniProtKB Q14832; experiment: Effective concentration against human cloned Metabotropic glutamate receptor 3
Sequence (Q14832 whole entry): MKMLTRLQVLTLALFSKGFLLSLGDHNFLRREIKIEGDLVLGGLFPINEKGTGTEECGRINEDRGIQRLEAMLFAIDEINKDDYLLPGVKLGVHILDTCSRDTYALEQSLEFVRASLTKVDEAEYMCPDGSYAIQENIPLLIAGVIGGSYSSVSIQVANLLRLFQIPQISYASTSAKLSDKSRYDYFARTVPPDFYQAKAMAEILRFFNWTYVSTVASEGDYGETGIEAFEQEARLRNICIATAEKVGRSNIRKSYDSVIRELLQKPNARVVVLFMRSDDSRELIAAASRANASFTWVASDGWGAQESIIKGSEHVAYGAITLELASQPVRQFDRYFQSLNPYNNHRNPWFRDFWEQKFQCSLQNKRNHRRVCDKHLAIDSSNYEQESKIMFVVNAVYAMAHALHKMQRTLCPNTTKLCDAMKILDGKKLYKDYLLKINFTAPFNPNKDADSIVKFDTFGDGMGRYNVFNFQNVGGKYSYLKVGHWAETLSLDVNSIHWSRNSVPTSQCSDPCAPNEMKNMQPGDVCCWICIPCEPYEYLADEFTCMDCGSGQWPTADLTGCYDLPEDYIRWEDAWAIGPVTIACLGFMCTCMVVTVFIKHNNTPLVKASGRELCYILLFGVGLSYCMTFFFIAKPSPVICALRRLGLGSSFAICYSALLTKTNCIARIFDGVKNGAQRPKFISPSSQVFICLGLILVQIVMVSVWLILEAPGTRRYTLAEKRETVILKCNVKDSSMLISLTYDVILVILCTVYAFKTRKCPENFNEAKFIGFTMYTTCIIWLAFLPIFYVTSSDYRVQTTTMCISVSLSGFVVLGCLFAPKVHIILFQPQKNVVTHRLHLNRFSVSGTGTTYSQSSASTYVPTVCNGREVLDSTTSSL
pEC50: −log10 of the molar value.
measureName: pEC50

Lookup: Consider the molecule shown here: CCS(=O)(=O)N(Cc1cccnc1)c1ccc(Oc2ccccc2)cc1 What is its recorded pEC50?
Found: < 4.90

---

target: Metabotropic glutamate receptor 2 (Homo sapiens, UniProt Q14416); experiment: Ability to displace [3H]LY-341,495 at glutamate-site on Metabotropic glutamate receptor 2; No significant displacement
Sequence (Q14416 whole entry): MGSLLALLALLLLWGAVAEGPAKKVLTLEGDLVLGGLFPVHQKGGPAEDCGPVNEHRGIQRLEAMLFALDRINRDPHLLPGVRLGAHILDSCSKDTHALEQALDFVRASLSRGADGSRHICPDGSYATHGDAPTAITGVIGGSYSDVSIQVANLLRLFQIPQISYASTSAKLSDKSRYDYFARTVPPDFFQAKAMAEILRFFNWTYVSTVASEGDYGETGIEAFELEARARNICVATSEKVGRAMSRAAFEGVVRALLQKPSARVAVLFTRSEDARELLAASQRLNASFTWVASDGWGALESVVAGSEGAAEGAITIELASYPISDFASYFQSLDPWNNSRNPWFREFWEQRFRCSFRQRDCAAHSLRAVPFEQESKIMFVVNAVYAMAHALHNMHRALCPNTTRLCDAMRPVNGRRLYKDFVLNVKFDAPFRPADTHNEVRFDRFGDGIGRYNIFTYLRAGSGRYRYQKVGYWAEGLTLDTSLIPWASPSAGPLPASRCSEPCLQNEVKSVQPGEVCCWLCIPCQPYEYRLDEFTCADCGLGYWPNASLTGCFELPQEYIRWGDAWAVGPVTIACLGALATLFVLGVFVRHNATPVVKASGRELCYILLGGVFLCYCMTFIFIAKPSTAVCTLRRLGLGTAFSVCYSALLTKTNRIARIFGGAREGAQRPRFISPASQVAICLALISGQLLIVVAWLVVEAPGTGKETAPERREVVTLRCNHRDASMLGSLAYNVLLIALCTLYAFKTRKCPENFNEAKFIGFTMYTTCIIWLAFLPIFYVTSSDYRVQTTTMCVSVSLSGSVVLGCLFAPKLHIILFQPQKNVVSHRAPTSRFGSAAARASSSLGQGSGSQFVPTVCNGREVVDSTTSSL
measureName: IC50

Lookup: Consider the compound shown here: COc1ccccc1Oc1ccc(N(Cc2cccnc2)S(=O)(=O)CC(F)(F)F)cc1 What is its recorded IC50?
Found: > 100 µM
